These data points were gathered from ChEMBL document CHEMBL1201862.

- Test system: HOP-62
- assayDetails: NCI tumour cell line growth inhibition, 48 h
Active and inactive are the calls of the source. Rule as the data show it: active = GI50 up to about 1.1 µM and inactive = higher.
The entries below are paired with their reported GI50.

Problem: GI50 for "Cc1nc2ccc([N+](=O)[O-])cc2c(=O)n1C(=S)Nc1cccc(Cl)c1" ?
Solution: 19.2 µM (inactive)

Problem: GI50 for "O=C1NCCN1/N=C/c1c(Cl)n(-c2ccccc2)c2ccccc12" ?
Solution: 94.4 µM (inactive)

Problem: GI50 for "O=C(O)[C@@H]1OCCOCCO[C@@H](C(=O)O)[C@H](C(=O)O)OCCOCCO[C@H]1C(=O)O" ?
Solution: > 100 µM (inactive)

Problem: GI50 for "c1ccc(CNc2nncc3[nH]cnc23)cc1" ?
Solution: > 100 µM (inactive)

Problem: GI50 for CC1C(OS(=O)(=O)c2ccc3nc(S)sc3c2)CC2C3(C)CCC2(C(C)C(=O)O)C(O)C13 (stereo not drawn) ?
Solution: 29.1 µM (inactive)

Problem: GI50 for O=C1CC(Cl)c2c1csc2Br (stereo not drawn) ?
Solution: 14.5 µM (inactive)

Problem: GI50 for CC1=CC2(O)OC3(CC2=C(C)C)C(C)CCC13 (stereo not drawn) ?
Solution: > 100 µM (inactive)

Problem: GI50 for "N#Cc1c(O)c2ccccc2[nH]c1=O" ?
Solution: > 100 µM (inactive)

Problem: GI50 for "CSc1cc(Cl)c(C)cc1S(=O)(=O)NC(=O)NNc1ccc(Cl)cc1" ?
Solution: > 100 µM (inactive)

Problem: GI50 for NC1(C(=O)O)CCCC1C(=O)O (stereo not drawn) ?
Solution: > 100 µM (inactive)

* * *

- Test system: HCT-15
- assayDetails: NCI tumour cell line growth inhibition, 48 h
Structures can show the parent of a compound that is named as a salt.
Category scheme (GI50): LOW = under 6 µM, MID = from 6 µM up to 30 µM, HIGH = 30 µM and over

Example results:
{"compound": "[N-]=[N+]=CC(=O)OC1CCOCC1", "discreteLabel": "HIGH"}
{"compound": "CCOC(=O)NC(N(C)C(C(C)C)P(=O)(OCC)OCC)(C(F)(F)F)C(F)(F)F (centres undefined)", "discreteLabel": "HIGH"}
{"compound": "S=C1/C(=N/c2ccccc2)N(c2ccccc2)/C(=N\\c2cccc[n+]2Cc2ccccc2)N1c1ccccc1", "discreteLabel": "MID"}
{"compound": "Cc1cc(N(CCC#N)CCC#N)ccc1/C=C1N=C(/C=C\\c2ccccc2)N(NC(=O)CC(=O)Nc2ccccc2Cl)C\\1=O", "discreteLabel": "HIGH"}
{"compound": "O=C(CCl)Nc1cc(Cl)c(Cl)cc1Cl", "discreteLabel": "LOW"}
{"compound": "COc1ccc2[nH]c(CCNC(=O)c3cc([N+](=O)[O-])cc([N+](=O)[O-])c3)cc2c1", "discreteLabel": "HIGH"}

Problem: Form field 'band' for "CC(C)(CO)N1CCN(C(S)=Nc2ccccc2)CC1"
Solution: HIGH

Problem: Form field 'band' for "CC(=O)NNc1nc(C)c(C(=O)NNC(=O)C(=O)Nc2ccc([N+](=O)[O-])cc2[N+](=O)[O-])s1"
Solution: HIGH

Problem: Form field 'band' for "Cn1c(-c2cccs2)cc(-c2cccs2)c1-c1ccco1"
Solution: MID

Problem: Form field 'band' for "C/C(=N\Nc1ccc([N+](=O)[O-])cc1[N+](=O)[O-])c1ccc2ccccc2n1"
Solution: HIGH

Problem: Form field 'band' for NCCc1cc(O)c(O)cc1O [OXIDOPAMINE HYDROCHLORIDE]
Solution: MID

Problem: Form field 'band' for "O=C1c2c(F)c(F)c(F)c(F)c2SC2=NCCN12"
Solution: LOW

Problem: Form field 'band' for "c1ccc(Nc2nnc(Cn3ccc4ccccc43)s2)cc1"
Solution: HIGH

Problem: Form field 'band' for "Clc1ccc2c(c1)N(CCCN1CCCC13CCCCC3)c1ccccc1S2"
Solution: MID

Problem: Form field 'band' for N/N=C1\C(=O)N(Cc2ccccc2)C(=O)C1C(=O)NCc1ccccc1 (centres undefined)
Solution: HIGH

Problem: Form field 'band' for "CC/C(Cl)=N\OC(=O)Nc1ccc(C#N)cc1"
Solution: MID

Problem: Form field 'band' for "O=C1C2=C(SCCS2)C(=O)c2ccccc21"
Solution: LOW

Problem: Form field 'band' for CC(=O)NCC1OC2COC(c3ccccc3)OC2C2N=C(c3ccccc3)OC12 (centres undefined)
Solution: HIGH

Problem: Form field 'band' for COC1/C=C\OC2(C)Oc3c(C)c(O)c4c(O)c(c(/C=N\OCCCc5ccccc5)c(O)c4c3C2=O)NC(=O)/C(C)=C\C=C/C(C)C(O)C(C)C(O)C(C)C(OC(C)=O)C1C (centres undefined)
Solution: LOW

Problem: Form field 'band' for "C/C(=N\N(c1ccccc1)c1ccccc1)c1c(O)cc(C)oc1=O"
Solution: HIGH

Problem: Form field 'band' for COC1OC(OC)C2C(c3c(C)cc(C)cc3C)=NOC12 (centres undefined)
Solution: HIGH

Problem: Form field 'band' for CC(C)Cc1ccc(C(C)/C=C2\CCC(CN3CCCCC3)C2=O)cc1 (centres undefined)
Solution: LOW

Problem: Form field 'band' for NC(=O)NC1C(C(N)=O)N(Cc2ccccc2)C(=O)N1Cc1ccccc1 (centres undefined)
Solution: HIGH
